Source: paper PMC9482650

Below, each of the binders is paired with its reported pKd value.
Study Target: PARD3B_2, Q8TEW8
Sequence (Q8TEW8 376-471): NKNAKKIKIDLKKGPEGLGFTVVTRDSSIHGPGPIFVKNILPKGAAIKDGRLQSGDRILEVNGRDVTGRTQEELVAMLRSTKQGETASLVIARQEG
Test Details: holdup assay
Design: key: below the threshold = too weak to quantify, mostly under pKd 3.1 to 4
Run Parameters: plain residues with an end cap or a label only (N-terminal biotin on a linker: ttds)
Metric Name: pKd

| Binder | Reported Measurement |
| --- | --- |
| PSRDRKETSI [RALBP1, Q15311] | 3.74 |
| SHSSKGETAV [FZD7, O75084] | 4.42 |
